Measured pIC50 of individual entries
Target Of Assay: human ERα (Homo sapiens)
Construct: amino acids M250V595 of human ERα; His (N); clarified lysate used
Sequence (P03372 250-595): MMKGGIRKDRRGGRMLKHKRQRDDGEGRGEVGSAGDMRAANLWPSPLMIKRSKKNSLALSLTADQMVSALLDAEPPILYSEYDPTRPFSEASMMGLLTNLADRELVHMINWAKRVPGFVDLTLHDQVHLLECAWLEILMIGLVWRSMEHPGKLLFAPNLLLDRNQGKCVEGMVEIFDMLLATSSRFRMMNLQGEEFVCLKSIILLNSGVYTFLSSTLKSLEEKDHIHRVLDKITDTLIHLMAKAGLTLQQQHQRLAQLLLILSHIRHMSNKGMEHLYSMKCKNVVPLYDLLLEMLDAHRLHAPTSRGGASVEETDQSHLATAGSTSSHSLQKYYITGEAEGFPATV
Method: Radioligand binding competition with [3H]-17β-estradiol, ERα
Measurement Context: ligand binding domain expressed in E. coli lysate, read-out: ER-α IC50
pIC50: −log10 of the molar value.

{"Record Smiles": "Cn1nc(-c2ccc3cc(O)ccc3c2)c2ccc(O)cc21", "Target Of Assay": "human ERα (Homo sapiens)", "Comparison Operator": "<", "pIC50": 5.30}
{"Record Smiles": "Oc1ccc2oc(-c3ccc(O)c4ccccc34)nc2c1", "Target Of Assay": "human ERα (Homo sapiens)", "Comparison Operator": "=", "pIC50": 6.24}
{"Record Smiles": "CCn1nc(-c2ccc3cc(O)ccc3c2)c2ccc(O)cc21", "Target Of Assay": "human ERα (Homo sapiens)", "Comparison Operator": "=", "pIC50": 5.50}
